Cited source: the supplement of paper PMC12632987

median log2 fold change values by entry
molecular target: GABARAPL2, P60520; assay: median log2 fold change of GCK-ALFA target abundance (FLAG IP / Myc IP barcode read proportion) (log2 ratio); each designed protein is fused to an ALFA-tag nanobody in HEK293 cells to bring the named protein to FLAG-tagged glucokinase (GCK); Myc marks an untargeted standard; higher = target protein stabilised (more abundant); conditions: target protein: 3xFLAG-MCP-GCK-ALFA reporter; HEK293 landing pad (RPLP)
Sequence (P60520 whole entry, the tested form may be a part): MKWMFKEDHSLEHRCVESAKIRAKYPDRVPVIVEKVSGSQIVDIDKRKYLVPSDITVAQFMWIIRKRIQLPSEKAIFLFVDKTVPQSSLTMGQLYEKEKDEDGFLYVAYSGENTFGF
Answer using only a numeral; do not append any unit.

Sample answers from the record:
binder	median log2 fold change
GBRAPL2_53_7343 (protein) MIEVDIAHPDKEVMAAAVEAVFDILERAGVEARVTVTKEDGTVVELEGPLEEVRAQAVALAKATEVLVRIELPDEAEEVVEEIEDEALAKGATVSVERIP	0.199
GBRAPL2_106_7266 (protein) EKLEELKKLLEEALELAKKLPEAFKAGDEEAIDELLDLLDEATRLAIELGLDEVAALVADAFDNVFAASEDPETAEEDFKEAIKNLEEALKLVEEELKKL	0.00104
GBRAPL2_151_7310 (protein) ELKEKVVKALKEAAKALEELAELLSPEHELEKTEIELIAGGMDAYAALVEETEDEEKIKEITKEAAELVEDAAKIAKELGLEEQAKKLEEIAKKLKELAA	0.111

QUERY: # return recorded median log2 fold change for entry GBRAPL2_0_7202 (protein) YLEEIEKAKELSPEELFKKLKELVEKLAEDDSISPEEKEEILLKIVELAAEKVKETKTEEDEKKFEEIVELAVKVAEKIDPNLAAYIRTHAGSLLYENES
RESULT: 0.0999

QUERY: # return recorded median log2 fold change for entry GBRAPL2_0_7198 (protein) YLERIEKAKELSPEETFKALKEIVKELAEDDSISLEELEEILEKIVELAAEKVKETKKEEDLEKFDEIVDLATEAAAKRDPNLAAYIDTYGGSLLIEVEE
RESULT: 0.104

QUERY: # return recorded median log2 fold change for entry GBRAPL2_151_7319 (protein) GELEELEKKLKELIKKLEKLLEKLKKEKPEYETEVSTLLGGAEADLLLAEEAEDPEEKRRFLAEAAELAADAFKLIAEVLGSEEAKKLAEEAKKLLEKLK
RESULT: 0.141

QUERY: # return recorded median log2 fold change for entry GBRAPL2_54_7377 (protein) MKKVEITIDYIVEGDEEELKRVREVLEKELEKMEKELKEKFNAKTEVSVEVEDGVLTVTVDVIVDEKDVDKVIDLALKTAEEVSKKTGVKVNVVIGIKEL
RESULT: -0.193

QUERY: # return recorded median log2 fold change for entry GBRAPL2_53_7360 (protein) MIVIDIAHPDKEVVKKAAEKIFDIVKEAGVEVEVTVTTEDGKVEKLTGSVDDIKAKVTELAAKQPVLIEITLPDSAKETAEKIVDVALEEGATVSVEELE
RESULT: 0.111

QUERY: # return recorded median log2 fold change for entry GBRAPL2_0_7224 (protein) MEEWIEKLKKLSIEEAAALVVEKIKELVESGKYSLEEIAEIVEKLARVLGEKLKEENKEEGLDLAAKAADEIRKILEKVDPNLAAFADSEIGSEIMEASS
RESULT: 0.136
